test: Nuclear factor erythroid 2-related factor 2/antioxidant responsive element (Nrf2/ARE) small molecule agonists: luciferase reporter gene qHTS assay in human keratinocytes (AID 1919969); settings: KeratinoSens HaCaT ARE-luciferase, luminescence, 24 h; series mostly up to 92.4 µM; note: nearly all actives have a fitted effect of over 35% in size
Results filed as inconclusive are left out. Activity calls are given as the source filed them. Calls come from the whole dose curve.
Possible outcomes: active, inactive

compound: O=C(O)/C=C/c1ccc(/C=C/C(=O)O)cc1
category label: inactive

compound: CC(C)COC(=O)COc1cc(Cl)c(Cl)cc1Cl
category label: inactive

compound: COc1ccc(C(=O)Nc2nc3ccccc3c(NCc3ccccc3)c2C#N)cc1
category label: inactive

compound: CC(=O)Nc1ccc(S(N)(=O)=O)cc1
category label: inactive

compound: CCOc1cccc(N)c1
category label: inactive

compound: CC(C)C(=O)Nc1cccc(C(F)(F)F)c1
category label: inactive

compound: CCCNC(C)C(=O)Nc1ccccc1C (stereo unspecified)
category label: inactive

compound: CCc1cccc(C)c1N(C(=O)CS(=O)(=O)O)C(C)COC (stereo unspecified)
category label: inactive

compound: O=C(O)Cc1ccc(-c2ccccc2)cc1
category label: inactive

compound: O=C(CCCl)NCc1ccccc1
category label: inactive

compound: C/C=C/C=C/COC(=O)C(C)C
category label: active

compound: C/C=C/C(=O)CC
category label: active

compound: Nc1ccc(C(=O)Oc2ccccc2)c(O)c1
category label: inactive

compound: O=C(O)c1cccc(O)c1
category label: inactive

compound: COc1ccccc1NC(=O)c1cc2ccccc2cc1O
category label: active

compound: CC(NC(CCc1ccccc1)C(=O)O)C(=O)N1C(=O)N(C)CC1C(=O)O (stereo unspecified)
category label: inactive

compound: O=C(O)P(=O)(O)O
category label: inactive

compound: O=C(O)c1cccc(C(=O)O)n1
category label: inactive

compound: CO[C@@H]1[C@H](OC(=O)/C=C/C=C/C=C/C=C/C(=O)O)CC[C@]2(CO2)[C@H]1[C@@]1(C)O[C@@H]1CC=C(C)C
category label: active

compound: CC(CCl)OC(C)CCl (stereo unspecified)
category label: inactive

compound: CC(C)=CCC/C(C)=C/C=N/O
category label: inactive

compound: CCN1CCN(c2cc3c(cc2F)c(=O)c(C(=O)O)cn3C2CC2)CC1
category label: inactive

compound: COC(=O)[C@H]1[C@H]2C[C@@H]3c4[nH]c5cc(OC)ccc5c4CCN3C[C@H]2C[C@@H](OC(=O)COc2ccc(OC)cc2)[C@@H]1OC
category label: inactive

compound: CCCOC(=O)c1ccc(O)cc1
category label: active

compound: CCN(CC)c1ccc2c(-c3ccc(S(=O)(=O)O)cc3S(=O)(=O)[O-])c3ccc(=[N+](CC)CC)cc-3oc2c1
category label: inactive

compound: O=C(CO)[C@@H](O)[C@H](O)[C@H](O)CO
category label: inactive

---

assay: Nuclear factor erythroid 2-related factor 2/antioxidant responsive element (Nrf2/ARE) small molecule agonists: qHTS cell viability counter screen in human keratinocytes (AID 1919968); settings: KeratinoSens HaCaT ARE cells viability, CellTiter-Fluor, 24 h; series mostly up to 92.4 µM; note: nearly all actives have a fitted effect of over 55% in size
Results filed as inconclusive are left out. Active and inactive are the calls of the source. Calls follow the shape of the dose curve; as a rule, active = well fitted cell-killing curve with a large enough effect in the repeat runs; inconclusive = weak or mixed curves, or effect the other way; inactive = flat fitted curve, though single readings scatter.
Possible outcomes: Yes (active), No (inactive)

molecule: CC(=O)Nc1ccc(S(N)(=O)=O)cc1
category label: No
--
molecule: CC1CCc2cc(F)cc3c(=O)c(C(=O)O)cn1c23 (centres undefined)
category label: No
--
molecule: CC(=O)OC(C)c1ccccc1 (centres undefined)
category label: No
--
molecule: O=C(O)c1cc(N=Nc2ccc([N+](=O)[O-])cc2)ccc1O
category label: Yes
--
molecule: O=C1OCCN1/N=C/c1ccc([N+](=O)[O-])o1
category label: No
--
molecule: O=C(O)c1cc(Cl)cc(Cl)c1O
category label: No
--
molecule: C[C@H](CCC(=O)NCC(=O)O)[C@H]1CC[C@H]2[C@@H]3[C@H](O)C[C@@H]4C[C@H](O)CC[C@]4(C)[C@H]3C[C@H](O)[C@]12C
category label: No
--
molecule: CCOC(=O)C(=O)OCC
category label: No
--
molecule: CC1=C2[C@@H]([C@H](C)CC[C@H]2/C=C(\C)C(=O)O)[C@H](O)C1
category label: No
--
molecule: Cc1c(C)c2c(c(C)c1OC(=O)CCC(=O)O)CC[C@@](C)(CCC[C@H](C)CCC[C@H](C)CCCC(C)C)O2
category label: No
--
molecule: CC(C)c1ccc(C(=O)N=C(N)N)cc1S(C)(=O)=O
category label: No
--
molecule: O=[N+]([O-])c1ccc(CO)cc1
category label: No
--
molecule: CCn1cc(C(=O)O)c(=O)c2cc(F)c(N3CCNCC3)nc21
category label: No
--
molecule: COCCO
category label: No
--
molecule: CCCCCCCC/C=C\CCCCCCCCOCCO
category label: Yes
--
molecule: CCn1cc(C(=O)O)c(=O)c2cc(F)c(N3CCNCC3)cc21
category label: No
--
molecule: CO[C@@H]1[C@H](OC(=O)/C=C/C=C/C=C/C=C/C(=O)O)CC[C@]2(CO2)[C@H]1[C@@]1(C)O[C@@H]1CC=C(C)C
category label: No
--
molecule: Cc1cc(-c2ccccc2)nnc1NCCN1CCOCC1
category label: No
--
molecule: COc1ccc(OC)c(N=Nc2c(O)ccc3ccccc23)c1
category label: Yes
--
molecule: CCCCC(=O)OCC(=O)[C@H]1[C@H](C)C[C@H]2[C@@H]3C[C@H](F)C4=CC(=O)C=C[C@]4(C)[C@@]3(F)[C@@H](O)C[C@@]21C
category label: No
--
molecule: CC(=O)O[C@@H]1CC2CCC1(C)C2(C)C (some centres undefined)
category label: No
--
molecule: Nc1ccc(S(=O)(=O)O)cc1
category label: No
--
molecule: CC1=C(/C=C/C(C)=C/C=C/C(C)=C\C(=O)O)C(C)(C)CCC1
category label: No
--
molecule: CCc1cc(Cc2cc(CC)cc(C(C)(C)C)c2O)c(O)c(C(C)(C)C)c1
category label: Yes
--
molecule: O=c1[nH]c(=O)n([C@H]2O[C@H](CO)[C@@H](O)[C@@H]2O)cc1/C=C\Br
category label: No
--
molecule: CC1=C(CC=O)C(C)(C)CCC1
category label: No
--
molecule: C[C@]1(Cn2ccnn2)[C@H](C(=O)O)N2C(=O)C[C@H]2S1(=O)=O
category label: No
--
molecule: Cc1cc(CC(=O)O)c(C)n1-c1ccc(Cl)cc1
category label: No
--
molecule: O=C(Nc1ccccc1)c1cc([N+](=O)[O-])ccc1Cl
category label: No
--
molecule: Nc1c(Cl)cc(Cl)cc1Cl
category label: No
--
molecule: COC(=O)CCc1ccc(OCC(O)CNC(C)C)cc1 (centres undefined)
category label: No
--
molecule: CCCCC(CC)CN (centres undefined)
category label: No
--
molecule: CCOC(=O)/C=C/C(=O)O
category label: No
--
molecule: O=S(=O)(O)CCO
category label: No
--
molecule: c1ccc2c(CC3=NCCN3)cccc2c1
category label: No
--
molecule: CN(C)CCN1CCOCC1
category label: No
--
molecule: NC1[C@H]2CN(c3nc4c(cc3F)c(=O)c(C(=O)O)cn4-c3ccc(F)cc3F)C[C@@H]12 (some centres undefined)
category label: No
--
molecule: O=S(=O)(O)c1ccc(N=Nc2c(O)ccc3ccccc23)cc1
category label: Yes
--
molecule: CC(C)(C)OC(=O)c1ccccc1C(=O)O
category label: No
--
molecule: c1cc(N(CC2CO2)CC2CO2)ccc1Cc1ccc(N(CC2CO2)CC2CO2)cc1 (centres undefined)
category label: Yes
--
molecule: CC(C)C[P+](C)(CC(C)C)CC(C)C
category label: No
--
molecule: C=CC(C)(O)CCCC(C)CCCC(C)CCCC(C)C (centres undefined)
category label: No
--
molecule: O=C(O)P(=O)(O)O
category label: No
--
molecule: NC(=O)c1ccccc1[N+](=O)[O-]
category label: No
--
molecule: NC(=O)C(c1ccccc1)(c1ccccc1)[C@@H]1CCN(CCc2ccc3c(c2)CCO3)C1
category label: No
--
molecule: CC(C)C(=O)OCC(C)(C)C(O)C(C)C (centres undefined)
category label: No
--
molecule: CC1CC(C)C(=O)C1=O (centres undefined)
category label: No
--
molecule: CCC(Cc1ccccc1)(C(=O)c1ccc(N2CCOCC2)cc1)N(C)C (centres undefined)
category label: No
--
molecule: OCC(CO)n1cnc(-c2ccc(F)cc2)c1-c1ccnc(Oc2ccccc2)n1
category label: No
